These entries and their values trace back to the supplement of paper PMC12645437.

Some sequences, each annotated with its measured log2 fold change of degron read counts.
- Target Desc: T1, CRBN, Q96SW2;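 also: pooled lentiviral library of zinc finger degron-EGFP fusions in mCherry-positive Jurkat cells, FACS-sorted after compound exposure, with degron abundance counted by next-generation sequencing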
- T1 chain: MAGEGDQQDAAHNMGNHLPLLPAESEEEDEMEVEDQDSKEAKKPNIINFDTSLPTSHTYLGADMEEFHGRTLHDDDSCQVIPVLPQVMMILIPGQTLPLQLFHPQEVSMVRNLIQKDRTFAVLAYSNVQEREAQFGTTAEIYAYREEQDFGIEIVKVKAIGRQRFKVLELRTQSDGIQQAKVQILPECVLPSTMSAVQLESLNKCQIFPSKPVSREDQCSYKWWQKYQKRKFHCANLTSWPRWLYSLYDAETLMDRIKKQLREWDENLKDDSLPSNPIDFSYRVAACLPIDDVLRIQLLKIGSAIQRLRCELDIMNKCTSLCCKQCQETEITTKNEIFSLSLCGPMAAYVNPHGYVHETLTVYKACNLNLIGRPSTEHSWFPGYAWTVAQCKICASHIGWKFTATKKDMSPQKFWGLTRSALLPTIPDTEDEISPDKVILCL
- Measurement Notes: log2 fold change of degron read counts, EGFP-low vs EGFP+ sorted cells (limma voom), compound-induced degradation; higher = more compound-induced degradation of the degron-EGFP fusion; degrons are variants of IKZF1/3 zinc finger 2; compound dose not given here
- Assay Context: Jurkat; 18 h; compound: compound 33 (diphenyl IMiD analogue)
The full ranking holds about 8,300 sequences; the median of “log2 fold change of degron read counts, EGFP-low vs EGFP+ sorted cells (limma voom), compound-induced degradation” is about -1.1, and the highest 2% start at about 3.2. The sample holds the highest values, similar sequences and a random draw of the others, so the mix is not that of the screen.
Quick one: just the number, no unit, thanks!

See these solved cases before continuing.
FACEICGAPFTQKGNLLRHIKL [46F_47A_49E_50I_52G_53A_54P_55F_67L_, Q9UKT9] = 0.463
FNCNICGACFTQKGNLLRHIKL [46F_47N_49N_50I_52G_53A_54C_55F_67L_, Q9UKT9] = 0.551
FHCPICGADFTQKGNLLRHIKL [46F_47H_49P_50I_52G_53A_54D_55F_67L_, Q9UKT9] = 0.863
FTCPICGRYFTQKGNLLRHIKL [46F_47T_49P_50I_52G_53R_54Y_55F_67L_, Q9UKT9] = 0.487
FACEICGRNFTQKGNLLRHIKL [46F_47A_49E_50I_52G_53R_54N_55F_67L_, Q9UKT9] = -2.25

Req: What log2 fold change of degron read counts value was documented for this sequence, FMCDVCGAAFTQKGNLLRHIKL [46F_47M_49D_50V_52G_53A_54A_55F_67L_, Q9UKT9] ?
Resp: 2.19

Req: Please report the recorded log2 fold change of degron read counts for FTCEICGAPFTQKGNLLRHIKL [46F_47T_49E_50I_52G_53A_54P_55F_67L_, Q9UKT9] .
Resp: 2.47
